molecular target: SRPK2 (human); assay: radiometric filter-binding kinase assay, Kinase HotSpot; details: compound 0.5 µM; ATP 10 µM
// values below are reported residual activity
The reply should be a number in %, with the unit left off.

Consider the following illustrative entries.
CCCC(=O)Oc1ccc2[nH]c(C(=O)c3cc4ccccc4[nH]3)cc2c1
89.4
N#CC(C#N)=C(N)/C(C#N)=C/c1ccc(O)cc1
88.8

Turning now to a further record.
Data request: Let me know recorded residual activity for c1ccc(-c2n[nH]cc2-c2ccnc3ccccc23)nc1 , thanks.
Data returned: 97.2

* * *

molecular target: ITK (human) (UniProt Q08881); assay: radiometric filter-binding kinase assay, Kinase HotSpot; conditions: compound 0.5 µM; ATP 10 µM
Sequence (Q08881 whole entry, looked up): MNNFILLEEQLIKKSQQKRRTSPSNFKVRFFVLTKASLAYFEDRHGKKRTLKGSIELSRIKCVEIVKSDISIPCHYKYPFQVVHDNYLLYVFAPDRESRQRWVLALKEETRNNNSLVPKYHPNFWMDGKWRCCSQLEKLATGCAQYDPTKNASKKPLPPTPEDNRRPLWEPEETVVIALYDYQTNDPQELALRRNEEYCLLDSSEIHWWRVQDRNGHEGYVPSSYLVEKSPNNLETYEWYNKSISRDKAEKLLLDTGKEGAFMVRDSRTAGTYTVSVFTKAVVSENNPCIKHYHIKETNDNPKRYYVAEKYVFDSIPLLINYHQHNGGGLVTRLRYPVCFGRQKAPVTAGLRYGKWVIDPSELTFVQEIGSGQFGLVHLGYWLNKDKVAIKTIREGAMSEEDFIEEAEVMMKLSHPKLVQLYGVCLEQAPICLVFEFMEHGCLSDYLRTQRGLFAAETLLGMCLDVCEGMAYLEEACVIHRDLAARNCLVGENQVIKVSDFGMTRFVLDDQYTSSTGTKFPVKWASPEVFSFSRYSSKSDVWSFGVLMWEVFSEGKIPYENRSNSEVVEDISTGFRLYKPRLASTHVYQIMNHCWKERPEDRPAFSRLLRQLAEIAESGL
Field 'label' (enum: t / f). Set to t when residual activity is strictly under 90%; else f.

Oc1cccc(-c2nc(N3CCOCC3)c3oc4ncccc4c3n2)c1
f
CCN(CC)CCNC(=O)c1c(C)[nH]c(/C=C2\C(=O)Nc3ccc(Cl)cc32)c1C
t
N#CC(C#N)=C(N)/C(C#N)=C/c1ccc(O)cc1
f

Data request: I'd appreciate it if you could check whether c1ccc(-c2n[nH]cc2-c2ccnc3ccccc23)nc1 has residual activity smaller than 90%.
Data returned: f

Data request: I'd appreciate it if you could check whether c1ccc(-c2n[nH]c3c2oc2ccccc23)cc1 has residual activity smaller than 90%.
Data returned: t

* * *

biological target: WNK2 (human); assay: radiometric filter-binding kinase assay, Kinase HotSpot; details: compound 0.5 µM; ATP 10 µM
// values below are reported residual activity
The reply should be a number in %, with the unit left off.

CCCC(=O)Oc1ccc2[nH]c(C(=O)c3cc4ccccc4[nH]3)cc2c1
113
Nc1cccc(-c2cc3c(Oc4cccc(O)c4)ncnc3[nH]2)c1
103
O=C1NC(=O)c2c1c1c3ccccc3n3c1c1c2c2ccccc2n1C1CCC3O1
93.6
Nc1ccc2ncnc(NCCc3ccc(Oc4ccccc4)cc3)c2c1
96.7
O=c1cc(N2CCOCC2)oc2c1ccc1ccccc12
103
c1ccc(-c2n[nH]cc2-c2ccnc3ccccc23)nc1
49.2
Oc1cccc(-c2nc(N3CCOCC3)c3oc4ncccc4c3n2)c1
119
Cc1ccc(Nc2nccc(N(C)c3ccc4c(C)n(C)nc4c3)n2)cc1S(N)(=O)=O
98.2

Turning now to a further record.
Data request: Let me know recorded residual activity for CO[C@H]1CC2CC[C@@H](C)[C@@](O)(O2)C(=O)C(=O)N2CCCC[C@H]2C(=O)OC([C@H](C)C[C@@H]2CC[C@@H](O)[C@H](OC)C2)CC(=O)[C@H](C)/C=C(\C)[C@@H](O)[C@@H](OC)C(=O)[C@H](C)C[C@H](C)/C=C/C=C/C=C/1C (some centres undefined) , thanks.
Data returned: 103

* * *

// values below are reported residual activity
target: STK16 (human); test: radiometric filter-binding kinase assay, Kinase HotSpot; details: compound 0.5 µM; ATP 10 µM

CC[n+]1c(/C=C/N(C)c2ccccc2)n(-c2ccccc2)c2ccc(-c3nc4ccccc4s3)cc21
98.4%
N#C/C(=C(/N)Sc1ccc(N)cc1)c1ccccc1C(F)(F)F
98.4%
O=c1cc(N2CCOCC2)oc2c1ccc1ccccc12
99%
Nc1ncnc2[nH]nc(Nc3ccc(F)cc3)c12
108%

Data request: Let me know recorded residual activity for CC#CC(=O)Nc1cc2c(Nc3ccc(F)c(Cl)c3)ncnc2cn1 , thanks.
Data returned: 104%
